- testedTarget: GST-tagged truncated LRRK2 containing residues 970 to 2527 (Homo sapiens, UniProt Q5S007)
- Construct: GST-tagged truncated LRRK2 containing residues 970 to 2527 (Life Technologies); purchased Life Technologies
- experimentNotes: In vitro LRRKtide peptide-substrate kinase assay, single dose testing (10 μM)
- Type: biochemical
- conditionLabel: LRRKtide assay @ 10 μM inhibitor; GST-LRRK2 970-2527; 10 μM ATP; mean, N = 3; solvent control = 100%
Threshold rule: % LRRKtide phosphorylation relative to solvent greater than or equal to 10% is satisfied; below that, not satisfied.

Inquiry: Check if % LRRKtide phosphorylation relative to solvent >= 10% (inclusive). Item: `COc1cc2ncnc(Nc3ccc(O)c(Br)c3)c2cc1OC`
Reply text: not satisfied

Inquiry: Does `CC[n+]1c(/C=C/N(C)c2ccccc2)n(-c2ccccc2)c2ccc(-c3nc4ccccc4s3)cc21.[I-]` have a reported % LRRKtide phosphorylation relative to solvent of at least 10%?
Reply text: satisfied

Inquiry: hey, is % LRRKtide phosphorylation relative to solvent for this one >= 10%? `N#CCCc1ccc2c(c1)-c1[nH]c3ccc([N+](=O)[O-])cc3c1CC(=O)N2`
Reply text: satisfied

Inquiry: Say whether O=C(NC(NC(=S)Nc1ccc(F)c([N+](=O)[O-])c1)C(Cl)(Cl)Cl)C(c1ccccc1)c1ccccc1 (centres unmarked) shows % LRRKtide phosphorylation relative to solvent of 10% or more.
Reply text: satisfied

Inquiry: Given `O=C(Nc1ccc(Cl)cc1)c1ccccc1NCc1ccncc1` , state whether its % LRRKtide phosphorylation relative to solvent is at least 10%.
Reply text: satisfied

Inquiry: Is it the case that `O=C(c1ccccc1)c1ccc(N2CCOCC2)cc1O` has % LRRKtide phosphorylation relative to solvent reaching or exceeding 10%?
Reply text: satisfied

Inquiry: Please check the record `CCN(CC)C(=O)c1ccc(Nc2nc(OCC3CCCCC3)c3[nH]cnc3n2)cc1` and state if its % LRRKtide phosphorylation relative to solvent is at or above 10%.
Reply text: not satisfied

Inquiry: Is it the case that `CC(C)[C@H](CO)Nc1nc(Nc2cccc(Cl)c2)c2ncn(C(C)C)c2n1` has % LRRKtide phosphorylation relative to solvent reaching or exceeding 10%?
Reply text: satisfied

* * *

- testedTarget: GST-tagged truncated LRRK2 containing residues 970 to 2527 (Homo sapiens, UniProt Q5S007)
- Construct: GST-tagged truncated LRRK2 containing residues 970 to 2527 (Life Technologies); purchased Life Technologies
- experimentNotes: In vitro LRRKtide peptide-substrate kinase assay, single dose testing (10 μM)
- Type: biochemical
- conditionLabel: no activity at 10 μM
resultType: activity on LRRK2 kinase activity in vitro (in words)

>>> reportedvalue("Cc1ccc(S(=O)(=O)/C=C/C#N)cc1 [BAY 11-7082]")
"inactive"
>>> reportedvalue("O=C(c1ccccc1)c1ccc(N2CCOCC2)cc1O [DNA-PK inhibitor V]")
"inactive"
>>> reportedvalue("O=C(Nc1cccc(Nc2nccc(Nc3cccc(C(F)(F)F)c3)n2)c1)C1CC1 [Aurora kinase inhibitor III]")
"inactive"
>>> reportedvalue("O=c1cc(N2CCNCC2)oc2c(-c3ccccc3)cccc12 [LY 303511]")
"inactive"

* * *

- testedTarget: LRRK2 phospho-Ser935 (Homo sapiens, UniProt Q5S007)
- Construct: expressed in transfected cells
- Sequence (Q5S007 whole entry): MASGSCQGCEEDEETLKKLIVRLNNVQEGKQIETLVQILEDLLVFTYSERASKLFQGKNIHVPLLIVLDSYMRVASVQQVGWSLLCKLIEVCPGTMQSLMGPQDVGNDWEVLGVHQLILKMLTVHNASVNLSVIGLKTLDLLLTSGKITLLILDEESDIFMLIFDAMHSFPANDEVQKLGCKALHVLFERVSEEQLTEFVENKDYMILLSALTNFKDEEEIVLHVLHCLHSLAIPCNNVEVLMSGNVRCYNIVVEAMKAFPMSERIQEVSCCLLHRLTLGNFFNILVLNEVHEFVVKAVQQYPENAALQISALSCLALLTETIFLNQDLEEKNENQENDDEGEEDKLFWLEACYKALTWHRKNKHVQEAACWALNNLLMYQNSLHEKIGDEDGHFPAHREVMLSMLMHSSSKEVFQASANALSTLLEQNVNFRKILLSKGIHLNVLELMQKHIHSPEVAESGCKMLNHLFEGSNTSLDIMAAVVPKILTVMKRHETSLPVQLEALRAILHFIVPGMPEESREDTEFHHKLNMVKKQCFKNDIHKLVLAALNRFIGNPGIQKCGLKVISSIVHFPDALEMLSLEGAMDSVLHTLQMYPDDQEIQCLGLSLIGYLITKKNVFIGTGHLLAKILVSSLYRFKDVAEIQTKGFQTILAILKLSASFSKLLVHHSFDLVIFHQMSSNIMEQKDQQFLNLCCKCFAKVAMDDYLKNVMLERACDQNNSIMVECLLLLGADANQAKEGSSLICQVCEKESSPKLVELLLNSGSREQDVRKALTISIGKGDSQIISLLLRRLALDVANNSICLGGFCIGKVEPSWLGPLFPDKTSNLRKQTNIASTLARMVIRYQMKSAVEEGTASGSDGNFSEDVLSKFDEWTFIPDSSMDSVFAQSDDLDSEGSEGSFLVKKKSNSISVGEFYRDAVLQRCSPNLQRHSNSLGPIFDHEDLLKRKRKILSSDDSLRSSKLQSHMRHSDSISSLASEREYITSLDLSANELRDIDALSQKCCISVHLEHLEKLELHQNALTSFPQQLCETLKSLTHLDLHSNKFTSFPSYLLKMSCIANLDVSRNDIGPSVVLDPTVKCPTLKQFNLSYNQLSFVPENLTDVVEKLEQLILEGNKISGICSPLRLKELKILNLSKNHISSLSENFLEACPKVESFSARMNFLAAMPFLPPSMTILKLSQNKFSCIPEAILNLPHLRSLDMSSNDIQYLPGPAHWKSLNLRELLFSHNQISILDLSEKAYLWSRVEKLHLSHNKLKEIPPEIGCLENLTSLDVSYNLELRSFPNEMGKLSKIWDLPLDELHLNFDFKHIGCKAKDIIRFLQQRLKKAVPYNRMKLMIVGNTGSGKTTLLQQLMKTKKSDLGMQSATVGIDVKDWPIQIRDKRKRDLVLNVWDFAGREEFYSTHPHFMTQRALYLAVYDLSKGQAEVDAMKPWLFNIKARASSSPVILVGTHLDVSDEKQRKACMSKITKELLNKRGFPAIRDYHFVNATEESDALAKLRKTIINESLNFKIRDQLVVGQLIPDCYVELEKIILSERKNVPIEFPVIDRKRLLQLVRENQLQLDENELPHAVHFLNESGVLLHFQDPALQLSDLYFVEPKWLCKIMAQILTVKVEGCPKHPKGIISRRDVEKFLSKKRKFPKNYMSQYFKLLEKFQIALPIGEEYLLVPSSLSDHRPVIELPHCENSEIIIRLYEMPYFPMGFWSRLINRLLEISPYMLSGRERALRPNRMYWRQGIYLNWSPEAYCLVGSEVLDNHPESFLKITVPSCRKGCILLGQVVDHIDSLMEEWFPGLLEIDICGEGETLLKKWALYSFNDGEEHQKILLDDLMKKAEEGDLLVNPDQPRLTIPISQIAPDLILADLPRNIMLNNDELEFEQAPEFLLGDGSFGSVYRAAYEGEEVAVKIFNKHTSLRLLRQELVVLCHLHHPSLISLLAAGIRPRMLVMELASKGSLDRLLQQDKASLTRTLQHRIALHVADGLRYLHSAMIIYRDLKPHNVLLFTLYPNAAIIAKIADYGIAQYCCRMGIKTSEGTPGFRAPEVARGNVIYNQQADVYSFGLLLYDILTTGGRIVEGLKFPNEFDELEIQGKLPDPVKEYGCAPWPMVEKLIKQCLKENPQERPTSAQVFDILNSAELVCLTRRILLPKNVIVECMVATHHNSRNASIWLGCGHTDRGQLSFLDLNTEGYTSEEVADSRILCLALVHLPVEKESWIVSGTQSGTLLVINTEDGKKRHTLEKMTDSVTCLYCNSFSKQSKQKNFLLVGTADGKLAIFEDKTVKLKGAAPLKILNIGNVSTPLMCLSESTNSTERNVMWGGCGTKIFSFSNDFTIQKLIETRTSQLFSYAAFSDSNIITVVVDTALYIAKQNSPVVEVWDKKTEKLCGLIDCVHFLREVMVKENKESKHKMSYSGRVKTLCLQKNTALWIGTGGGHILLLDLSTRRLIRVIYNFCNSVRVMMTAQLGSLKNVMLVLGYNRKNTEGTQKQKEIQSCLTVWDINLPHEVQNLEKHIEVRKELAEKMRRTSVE
- experimentNotes: Cellular LRRK2 phosphoserine 935 dephosphorylation spotblot assay in SH-SY5Y cells stably expressing 3xFlag-LRRK2
- Format: cell-based
- conditionLabel: read-out: IC50 cellular (pS935)
resultType: pIC50
Scale: negative log10 of molar concentration, which is what pIC50 denotes.

Noted for COc1cc(C(=O)N2CCC(N3CCN(C)CC3)CC2)ccc1Nc1ncc2c(n1)N(C)c1ccccc1C(=O)N2C [LRRK2 IN1] : its pIC50 reads 6.55
